# Tested on: OVCAR-5
# Method Summary: NCI tumour cell line growth inhibition, 48 h
The source made the active and inactive calls. Cut-off read from the data, not from the text of the source: active = GI50 up to about 1.1 µM and inactive = higher.
Possible outcomes: true = active, false = inactive

INSERT INTO measurements (compound, label_value) VALUES
  ('Nc1nc(N)c2cc(Sc3ccc4nc(N)nc(N)c4c3)ccc2n1', 'false'),
  ('CC(=O)Nc1ccc2cc(C#N)c(=O)[nH]c2n1', 'false'),
  ('COc1c2cc([N+](=O)[O-])cc1CN(C(=O)C(F)(F)F)CCOCCN(C(=O)C(F)(F)F)C2', 'false'),
  ('CCOC(=O)[C@H]1C[C@]23CN(C(=O)OC(C)(C)C)CC[C@H]2CCC2(SCCCS2)[C@@H]3N1C', 'false'),
  ('Cc1ccc([N+](=O)[O-])cc1S(=O)(=O)Nc1ccc(C2=NN(S(=O)(=O)c3cc([N+](=O)[O-])ccc3C)C(c3cccs3)C2)cc1 (centres undefined)', 'false'),
  ('COC(=O)CCC(NC(=S)N/N=C/c1ccccn1)C(=O)OC (centres undefined)', 'false'),
  ('COC(=O)C(C(=O)OC)C1CC(=O)c2c(Br)sc(Br)c21 (centres undefined)', 'false'),
  ('COc1ccc2c(c1)[n+]([O-])c(-c1ccccc1)c(N)[n+]2[O-]', 'false'),
  ('Nc1cc(N2CCOCC2)nc(=O)n1-c1ccc(Cl)cc1', 'false'),
  ('CC12CCC(=O)N1[C@@H](c1ccccc1)[C@@H](c1ccccc1)O2 (some centres undefined)', 'false'),
  ('CN(C)c1ccc(/C=C2\C[C@H]3[C@@H]4CC=C5C[C@@H](N6CCCC6)CC[C@]5(C)[C@H]4CC[C@]3(C)[C@H]2O)cc1', 'false'),
  ('O=C(O)c1ccc(Cc2ccccc2C(=O)O)cc1', 'false'),
  ('C1=N\CCNCC/N=C\c2ccc(cc2)OCc2cccc(n2)COc2ccc/1cc2', 'false'),
  ('CC1=C(c2cc(C(=O)Nc3nccs3)nc(NC#N)n2)Sc2ccccc2N1', 'false'),
  ('O=C(Cc1ccccc1)NN1C(=O)C(Cl)C1c1ccc([N+](=O)[O-])cc1 (centres undefined)', 'false'),
  ('COC(=O)/C=C1\C(=O)N(C(C)=O)c2ccc(Br)cc21', 'false'),
  ('Cn1c(=O)c2c3oc(=O)cc(O)c3c(=O)n3c4ccccc4n(c1=O)c23', 'false'),
  ('COC1C(O)=C2C(=O)O/C(C)=C/C=C/C=C/C=C\CC(c3ccccc3)NC(=O)\C=C/C=C\C=C\C=C\[C@@]2(C)[C@@H]1O (some centres undefined)', 'true'),
  ('O=S(=O)(c1ccccc1)[C@H]1[C@@H]2O[C@@H]2C[C@@H]1O', 'false');
